Listing of recorded ΔH by entry.
- assay-protocol: Photo-DSC analysis of various styrene oxides formulated with photoinitiator and diol (Example 6)
- Type: physicochemical
- condition: MP-diol, Epoxy:Diol 3:1
assay-readout: ΔH

1) COc1cc(C2OC2C)ccc1OC(C)=O (centres unmarked) [isoeugenol acetate epoxy, isoeugenol acetate epoxide]; -67.6 kJ/Mole EPOXIDE
2) CC1(c2ccccc2)CO1 (centres unmarked); -56.4 kJ/Mole EPOXIDE
3) COCC1OC1c1ccccc1 (centres unmarked) [cinnamyl methyl ether epoxy, cinnamyl methyl ether epoxide]; -63.6 kJ/Mole EPOXIDE
4) CC(=O)OCC1OC1c1ccccc1 (centres unmarked) [cinnamyl acetate epoxy, cinnamyl acetate epoxide]; -16.1 kJ/Mole EPOXIDE
5) CC1OC1c1ccccc1 (stereo not drawn) [beta-methyl styrene epoxy, beta-methyl styrene mono-epoxide]; -75.7 kJ/Mole EPOXIDE

// data source = patent EP0878472A1
